Test: Indiscriminate thiol reactivity assay with GSH
Format: physicochemical
Details: 23 h incubation with 5 mM GSH at 37 °C, LC–MS UV trace
PROPERTY NAME: GSH adduct pH 7.5 (%)

SMILES: CC(C)C[C@H](NC(=O)[C@H]1O[C@@H]1C(=O)O)C(=O)NCCCCN=C(N)N
GSH adduct pH 7.5 [%]: 64
--
SMILES: CC#CC(=O)N1CCC[C@H]1c1nc(-c2ccc(C(=O)Nc3ccccn3)cc2)c2c(N)nccn12
GSH adduct pH 7.5 [%]: 95
--
SMILES: CN(C)C/C=C/C(=O)Nc1cc2c(Nc3ccc(F)c(Cl)c3)ncnc2cc1O[C@H]1CCOC1
GSH adduct pH 7.5 [%]: 94
--
SMILES: C=CC(=O)N1CCC[C@@H](n2nc(-c3ccc(Oc4ccccc4)cc3)c3c(N)ncnc32)C1
GSH adduct pH 7.5 [%]: 91
